Origin of measurements: paper PMC4389225

# reported pIC50; entries follow
# Tested On: α1A adrenoceptor (Homo sapiens, UniProt P35348)
# Sequence (P35348 whole entry): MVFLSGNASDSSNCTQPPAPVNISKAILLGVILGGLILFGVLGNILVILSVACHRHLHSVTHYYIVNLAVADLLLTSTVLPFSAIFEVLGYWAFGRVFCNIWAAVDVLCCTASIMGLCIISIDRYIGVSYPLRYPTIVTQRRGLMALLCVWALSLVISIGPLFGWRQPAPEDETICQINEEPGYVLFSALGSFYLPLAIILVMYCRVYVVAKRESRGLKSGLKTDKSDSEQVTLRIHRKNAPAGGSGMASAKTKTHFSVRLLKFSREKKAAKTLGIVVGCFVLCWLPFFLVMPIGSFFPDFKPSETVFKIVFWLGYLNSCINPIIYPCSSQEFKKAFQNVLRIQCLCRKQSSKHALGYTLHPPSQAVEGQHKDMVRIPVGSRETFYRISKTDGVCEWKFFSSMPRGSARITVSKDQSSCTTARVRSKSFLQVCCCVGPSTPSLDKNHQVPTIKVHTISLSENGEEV
In plain terms, pIC50 is the concentration in mol/L turned into minus its base-10 logarithm.

Illustrative cases are given below, each with its answer.
[[record]]
chemical_structure = "Cc1nc(Nc2ncc(N3CCN(C)[C@H](C)C3)c(Nc3cc(C)n(C)n3)n2)cc(C2CC2)c1F"
assay_endpoint = "pIC50"
endpoint_value = 5.92

[[record]]
chemical_structure = "CCc1cc(Nc2ncc(N3CCN[C@H](C)C3)c(Nc3cc(C)n(C)n3)n2)nc(C)c1F.Cl.Cl"
assay_endpoint = "pIC50"
endpoint_value = 5.89


[ask] Query the reported pIC50 for α1A adrenoceptor (Homo sapiens, UniProt P35348); item: Cc1cc(Nc2ncc(N3CCN(C)CC3)c(N3CCCC3)n2)ccn1
[reply] 5.51

* * *

# Assay Summary: Plasma protein binding, guinea pig
# Condition Notes: guinea pig, plasma
Assay Endpoint: fraction unbound
// no unit, no text: just the number

[ask] Record request: fraction unbound value, item Cc1nc(Nc2ncc(N3CCN(C)[C@H](C)C3)c(Nc3cc(C)n(C)n3)n2)cc(C2CC2)c1F [compound 12]
[reply] 0.055

* * *

# Assay Summary: Rat blood PK, IV and oral
# Format: in vivo
# Condition Notes: Wistar, rat, whole blood, po, 10 mg/kg, Oral 10 mg kg-1, Rat 3
Assay Endpoint: Cmax (nM)
Answer in nM, number only, no unit symbol.

[ask] # lookup: Cmax of Cc1nc(Nc2ncc(N3CCN(C)[C@H](C)C3)c(Nc3cc(C)n(C)n3)n2)cc(C2CC2)c1F [compound 12]
[reply] 1990

* * *

# Assay Summary: Rat blood PK, IV and oral
# Format: in vivo
# Condition Notes: Wistar (rat), Beagle (dog), rat, whole blood (rat), plasma (dog), po, oral PK study, rat and dog; read-out: half-life
Assay Endpoint: half-life

[ask] Which value of half-life has been reported for Cc1nc(Nc2ncc(N3CCN(C)[C@H](C)C3)c(Nc3cc(C)n(C)n3)n2)cc(C2CC2)c1F [compound 12] in the records?
[reply] 840 to 960 min

* * *

# Test system: Dd2 PI4K Cpd 1
# Assay Summary: [3H]-hypoxanthine incorporation assay, Dd2 PI4K Cpd 1 resistant
# Format: cell-based
# Condition Notes: Plasmodium falciparum
Assay Endpoint: IC50 (nM)
Quick note: give the figure in nM, leave out the unit.

[[record]]
molecule = "Cc1nc(Nc2ncc(N3CCNC(C)C3)c(Nc3cc(C)n(C)n3)n2)cc(C2CC2)c1F.Cl.Cl (centres unmarked)"
assay_endpoint = "IC50"
endpoint_value = 10


// moving on: another record for IC50
[ask] Recorded IC50 for Cc1nc(Nc2ncc(N3CCN(C)[C@H](C)C3)c(Nc3cc(C)n(C)n3)n2)cc(C2CC2)c1F , please?
[reply] 7.1

* * *

# Assay Summary: Dog plasma PK, IV and oral
# Type: in vivo
# Condition Notes: male, Beagle, dog, plasma, iv, 2.1 mg/kg, IV 2.1 mg kg-1, Dog 2
# Experimental: Pharmacokinetic studies to estimate the blood levels of compounds in dogs. PK in fasted, male Beagle dogs (n = 2 per dose) was studied after a single dose administered by intravenous infusion for 15 min (IV) or by an oral route (PO). […] 48 hours after an oral dose of 5 mg/kg. Blood samples were centrifuged and plasma samples were analyzed by LC/MS/MS. […]
Assay Endpoint: Cmax (nM)
Field: numeric (nM). Do not append units.

[ask] Quick one: Cmax for Cc1nc(Nc2ncc(N3CCN(C)[C@H](C)C3)c(Nc3cc(C)n(C)n3)n2)cc(C2CC2)c1F [compound 12] ?
[reply] 515
